Value source: PubChem BioAssay AID1240

Measured displacement accompanies every entry in the list below.
molecular target: Bcl-2-like protein 10 (Homo sapiens); test: TR3 peptide-Bcl-B binding displacers, biochemical primary FP assay, phenotype converters (AID 1240); details: GST-Bcl-B / FITC-TR3 peptide fluorescence polarization; stronger effect = higher value; compound at 3.75 mg/L;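 further: 0% = Bcl-B with tracer peptide and DMSO and 100% = tracer peptide lacking Bcl-B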
The whole screen tested about 50,000 compounds, of which about 800 (1.6%) showed an effect of 50% or more. What follows is part of a selection rich in strong results, with near analogues and random picks from the rest.
RESULT_TYPE: displacement (%)

COMPOUND: COc1ccc(C2=NN(C(C)=O)C(c3ccccc3OC)C2)cc1 (stereo not given)
UNITS_TEXT: %
VALUE_OBSERVED: 2.3
--
COMPOUND: C=CCN1C(=O)/C(=C/c2ccccc2OCc2ccccc2Cl)SC1=S
UNITS_TEXT: %
VALUE_OBSERVED: 11.6
--
COMPOUND: Cc1cccc([N+](=O)[O-])c1N=Cc1ccc(N(C)C)cc1
UNITS_TEXT: %
VALUE_OBSERVED: -4.5
--
COMPOUND: C=CCN1C(=O)/C(=C\c2ccc(OCc3ccccc3Cl)cc2)SC1=S
UNITS_TEXT: %
VALUE_OBSERVED: 95.7
--
COMPOUND: C=CCN1C(=O)/C(=C/c2cccc(OCc3ccccc3Cl)c2)SC1=S
UNITS_TEXT: %
VALUE_OBSERVED: -4.4
--
COMPOUND: COc1ccc2c(Cl)c(C(=O)N/N=C/c3ccccn3)sc2c1
UNITS_TEXT: %
VALUE_OBSERVED: 7.8
--
COMPOUND: Cc1cc(C)cc(N2C(=O)NC(=O)/C(=C\c3cc(Br)ccc3OCC(=O)O)C2=O)c1
UNITS_TEXT: %
VALUE_OBSERVED: -7.4
--
COMPOUND: c1ccc2nc(NCc3ccncc3)ccc2c1
UNITS_TEXT: %
VALUE_OBSERVED: -8.8
--
COMPOUND: C=CCN1C(=O)/C(=C\c2cc(Cl)ccc2OCc2ccccc2F)SC1=S
UNITS_TEXT: %
VALUE_OBSERVED: 60.2
--
COMPOUND: COc1ccc(C(=O)NC(=S)NCc2ccco2)cc1
UNITS_TEXT: %
VALUE_OBSERVED: 9.4
--
COMPOUND: O=C(Nc1nc(-c2ccc([N+](=O)[O-])cc2)cs1)c1ccccc1F
UNITS_TEXT: %
VALUE_OBSERVED: 113
--
COMPOUND: O=C(Nc1nc(-c2ccc([N+](=O)[O-])cc2)cs1)c1ccc(Cl)cc1
UNITS_TEXT: %
VALUE_OBSERVED: 8.7
--
COMPOUND: O=C(O)CCCCCN1C(=O)C(=O)/C(=C(/O)c2ccccc2)C1c1ccc([N+](=O)[O-])cc1 (stereo not given)
UNITS_TEXT: %
VALUE_OBSERVED: -3.9
--
COMPOUND: O=C(Nc1nc(-c2ccc(F)cc2)cs1)c1ccccc1[N+](=O)[O-]
UNITS_TEXT: %
VALUE_OBSERVED: 8.9
--
COMPOUND: C=CCN1C(=O)/C(=C\c2ccccc2OCc2ccc(Cl)cc2)SC1=S
UNITS_TEXT: %
VALUE_OBSERVED: 23.3

====

biological target: Bcl-2-like protein 10 (Homo sapiens); assay: TR3 peptide-Bcl-B binding displacers, biochemical primary FP assay, phenotype converters (AID 1240); settings: GST-Bcl-B / FITC-TR3 peptide fluorescence polarization; stronger effect = higher value; compound at 3.75 mg/L;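 further: 0% = Bcl-B with tracer peptide and DMSO and 100% = tracer peptide lacking Bcl-B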
Out of some 50,000 compounds screened, about 800 (1.6%) showed an effect of 50% or more. The list comes from a sample in which strong results are over-represented; it also holds close analogues and randomly drawn compounds.
Measured displacement accompanies every entry in the list below.
RESULT_TYPE: displacement (%)

COMPOUND: CC1(C)OC(=O)C(=Cc2ccc(-c3ccc(Cl)cc3Cl)o2)C(=O)O1
VALUE_OBSERVED: 34.4
--
COMPOUND: CCc1ccc(-c2nc3cc(NC(=O)c4ccccc4OC)ccc3o2)cc1
VALUE_OBSERVED: 8.5
--
COMPOUND: O=C(Nc1ccc(O)c(-c2nc3ccccc3s2)c1)c1ccc2c(c1)OCCO2
VALUE_OBSERVED: 82.5
--
COMPOUND: Cc1ccc2nc(-c3ccc(NC(=O)c4ccc5c(c4)OCCO5)cc3)sc2c1
VALUE_OBSERVED: 73.2
--
COMPOUND: Cc1cc(C=C2C(=O)NC(=S)NC2=O)c(C)n1-c1ccc(Br)cc1
VALUE_OBSERVED: 21
--
COMPOUND: CC1=C(C(=O)OC2CCCC2)C(c2ccc(Cl)cc2)NC(=O)N1 (stereo not given)
VALUE_OBSERVED: 7.3
--
COMPOUND: CC(=O)NC1=NC(=O)/C(=C\c2cccc(F)c2)S1
VALUE_OBSERVED: -29.1
--
COMPOUND: CC(=O)NC1=NC(=O)/C(=C/c2ccc(C)cc2)S1
VALUE_OBSERVED: 118
--
COMPOUND: Cc1ccc(Nc2ccc([N+](=O)[O-])c3nonc23)cc1
VALUE_OBSERVED: -2.1
--
COMPOUND: CC(=O)NC1=NC(=O)/C(=C\c2cccc([N+](=O)[O-])c2)S1
VALUE_OBSERVED: -42.2
--
COMPOUND: Cc1ccc(-n2c(C)cc(C=C3C(=O)NC(=S)NC3=O)c2C)cc1C
VALUE_OBSERVED: 0.1
--
COMPOUND: Cc1cc(/C=C2/SC(=S)NC2=O)c(C)n1-c1ccccc1
VALUE_OBSERVED: -39.7
--
COMPOUND: O=C(NC1CCN(Cc2ccccc2)CC1)c1ccc(F)cc1
VALUE_OBSERVED: 2.6
--
COMPOUND: CCOc1ccc(-c2nc(Cc3ccccc3OC)no2)cc1
VALUE_OBSERVED: -6.4
--
COMPOUND: CC(C)C(=O)Nc1cc(C(F)(F)F)cc(C(F)(F)F)c1
VALUE_OBSERVED: -2.9

====

Measured displacement accompanies every entry in the list below.
target: Bcl-2-like protein 10 (Homo sapiens) (UniProt Q9HD36); experiment: TR3 peptide-Bcl-B binding displacers, biochemical primary FP assay, phenotype converters (AID 1240); conditions: GST-Bcl-B / FITC-TR3 peptide fluorescence polarization; stronger effect = higher value; compound at 3.75 mg/L;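 further: 0% = Bcl-B with tracer peptide and DMSO and 100% = tracer peptide lacking Bcl-B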
Sequence (Q9HD36 whole entry, looked up): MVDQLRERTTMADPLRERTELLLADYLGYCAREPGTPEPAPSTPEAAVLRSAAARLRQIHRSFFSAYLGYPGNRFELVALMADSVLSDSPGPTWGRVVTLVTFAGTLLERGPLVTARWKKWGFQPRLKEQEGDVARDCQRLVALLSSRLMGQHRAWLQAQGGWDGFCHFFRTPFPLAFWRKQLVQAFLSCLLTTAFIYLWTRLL
About 800 (1.6%) of roughly 50,000 compounds showed an effect of 50% or more. The entries come from a sample that favours strong results as a whole.
RESULT_TYPE: displacement

MOLECULE: Cc1onc(-c2c(F)cccc2Cl)c1C(=O)NCc1ccc(Cl)cc1
VALUE_OBSERVED: -6.9%
//
MOLECULE: Cc1ccc(-c2cc(-c3ccncc3)c(C#N)c(N)c2C#N)cc1
VALUE_OBSERVED: 21.2%
//
MOLECULE: Cc1cc(/C=C2\C(=O)NC(=S)N(c3ccc(Cl)cc3)C2=O)c(C)n1C
VALUE_OBSERVED: 29.5%
//
MOLECULE: O=C(Nc1ccc(Br)cc1)c1ccccc1C(F)(F)F
VALUE_OBSERVED: 23.2%
//
MOLECULE: CCCCc1ccc(/C=C2/C(=O)ON=C2c2ccccc2)s1
VALUE_OBSERVED: 40.8%
//
MOLECULE: CCN(CC)c1ccc(N2C(=O)/C(=C/C=C/c3ccccc3)SC2=S)cc1
VALUE_OBSERVED: -4.2%
//
MOLECULE: C=CCN1C(=O)/C(=C\c2ccc(O)cc2)C(=O)NC1=S
VALUE_OBSERVED: -14.8%
//
MOLECULE: COc1cc(Br)cc(/C=C(\C#N)C(=O)NC2CCCCC2)c1O
VALUE_OBSERVED: -5.3%
//
MOLECULE: COC(=O)COc1ccc2c(=O)c(Oc3ccc(C(C)(C)C)cc3)coc2c1
VALUE_OBSERVED: 8%
//
MOLECULE: COc1ccc(-c2cc(C(F)(F)F)n3nc(C(=O)NCCN4CCOCC4)c(Cl)c3n2)cc1
VALUE_OBSERVED: -10.2%
//
MOLECULE: Cc1cc(C)cc(CC2CC(=O)N(c3ccc(Br)cc3)C2=O)c1 (stereo unspecified)
VALUE_OBSERVED: -8%
//
MOLECULE: Nc1nonc1-c1ncc(-c2ccc(Br)cc2)nn1
VALUE_OBSERVED: 30.1%
//
MOLECULE: CCOC(=O)c1c(NC=O)sc2c1CCC2
VALUE_OBSERVED: -2.1%
//
MOLECULE: C=CCN1C(=O)/C(=C\c2cc(C)n(-c3ccc([N+](=O)[O-])cc3)c2C)SC1=S
VALUE_OBSERVED: 14.9%
//
MOLECULE: O=C1CSC(c2cn(-c3ccccc3)nc2-c2ccc(Cl)cc2)N1Cc1ccccc1 (stereo unspecified)
VALUE_OBSERVED: -6.5%
//
MOLECULE: O/N=C/c1cn(-c2ccccc2)nc1-c1ccccc1
VALUE_OBSERVED: 10%
//
MOLECULE: Oc1ccccc1/C=N/Nc1nc2ccccc2s1
VALUE_OBSERVED: 0.6%
//
MOLECULE: COc1ccc(-c2cc(C(F)(F)F)n3nc(C(N)=O)c(Cl)c3n2)cc1OC
VALUE_OBSERVED: 33.4%
//
MOLECULE: Cc1c(Cl)cccc1NC(=O)C1c2ccccc2Oc2ccccc21
VALUE_OBSERVED: 11.9%
//
MOLECULE: COC(=O)c1ccc(NC(=S)NC(=O)/C=C/c2ccc(Br)cc2)cc1
VALUE_OBSERVED: 13.2%
//
MOLECULE: CC(C)(C)c1cc(C(=O)N/N=C/C=C/c2ccccc2)n[nH]1
VALUE_OBSERVED: -9.5%
//
MOLECULE: C/C(=N\Nc1nc(C)cc(-c2ccccc2)n1)c1cccc(N)c1
VALUE_OBSERVED: -15.5%
//
MOLECULE: COc1cc(OC)c(OC)cc1/C=C/c1cc(C(F)(F)F)[nH]c(=O)n1
VALUE_OBSERVED: 7.5%
//
MOLECULE: O=C(COc1ccc2ccccc2c1)Nc1cc([N+](=O)[O-])ccc1F
VALUE_OBSERVED: 29.5%
//
MOLECULE: O=c1nc(/C=C/c2cc3c(cc2Br)OCO3)cc(C(F)(F)F)[nH]1
VALUE_OBSERVED: 115%
//
MOLECULE: O=C(Nc1c(C(=O)N2CCC(Cc3ccccc3)CC2)cnn1-c1ccccc1)c1ccccc1F
VALUE_OBSERVED: 88.9%
//
MOLECULE: COC(=O)c1ccc(C(=O)OC)c(NC(=O)COc2ccccc2[N+](=O)[O-])c1
VALUE_OBSERVED: 66.9%
//
MOLECULE: COC(=O)c1ccc(-n2c(C)cc(/C=C3\SC(NC(C)=O)=NC3=O)c2C)cc1
VALUE_OBSERVED: 114%
//
MOLECULE: COC(=O)c1ccc(C(=O)OC)c(NC(=O)COc2ccc(Cl)cc2C)c1
VALUE_OBSERVED: 5.4%
//
MOLECULE: COc1cc(/C=C/c2cc(C(F)(F)F)[nH]c(=O)n2)cc(OC)c1OC
VALUE_OBSERVED: 2.7%
//
MOLECULE: CCOC(=O)c1c(NC(=O)c2ccccc2)sc2c1CCC/C2=N/O
VALUE_OBSERVED: -0.2%
